Catalogue of compounds with associated pEC50
molecular target: β2 -adrenergic receptor (Rattus norvegicus); construct: longitudinal uterine muscle strips (about 15 mm in length and about 5 mm in width); experiment: Action of drugs on the spontaneous contractions of isolated myometria (isolated rat pregnant uterus); conditions: isolated pregnant SD rat uterus (pregnancy day 21), Magnus method, 37° C.; read-out: EC50, activity to relax 50% of the spontaneous contractions of rat myometrium
Sequence (P10608 whole entry): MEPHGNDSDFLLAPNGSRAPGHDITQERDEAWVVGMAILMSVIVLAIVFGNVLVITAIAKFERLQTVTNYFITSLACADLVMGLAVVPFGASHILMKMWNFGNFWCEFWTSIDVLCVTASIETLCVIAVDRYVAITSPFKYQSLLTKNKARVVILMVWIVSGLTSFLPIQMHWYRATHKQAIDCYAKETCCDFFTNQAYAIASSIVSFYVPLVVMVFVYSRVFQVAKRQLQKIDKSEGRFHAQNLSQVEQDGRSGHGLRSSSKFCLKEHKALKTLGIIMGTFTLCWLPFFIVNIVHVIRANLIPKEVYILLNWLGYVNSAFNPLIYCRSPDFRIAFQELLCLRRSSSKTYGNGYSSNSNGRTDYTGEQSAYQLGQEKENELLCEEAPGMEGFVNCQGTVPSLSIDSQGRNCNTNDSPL
pEC50: −log10 of the molar value.
VALUE KIND: pEC50

>>> recorded_value("CN(C)C(=O)COc1ccc2c(c1)C[C@@H](NC[C@H](O)c1ccc(O)c(CO)c1)CC2 [Compound 6]")
8.59
>>> recorded_value("CN(C)C(=O)COc1ccc2c(c1)C[C@@H](NCC(O)c1ccc(O)c(CO)c1)CC2 (mixture of isomers) [Compound 1]")
8.28
